Assay: yeast display, Sf9 membrane polyspecificity reagent, FACS + sequencing; frameworks hold sequencing errors
result type: polyreactivity (PSR sort gate)

>>> result("QVHLVESGGGLVHAGGSLRLSSAASGSIFGANTMGWYRQAPGKERELVAGITSGARTYYADSVKGRFTISRDNAKNTVYLQMNSLKPEDTAVYYCAAKYAWRRYGFWGQGTQVTVSS")
"high polyreactivity"
>>> result("QVQLVESGVGLVQAGGSLRLSCAASGFILGQYTMGWYRQAPGKERELVAAISSSGSTNYADSVKGRFTISRDNAKNTVYLQMNSLKPEDTAVYYCNGDGNPDFYYSFYDEYDYWGQGTQVTVSS")
"low polyreactivity"
>>> result("QVQLVESGGGLVQAGGSLRLSCAASGGIFGGYAMGWYRQAPGKAGALVAVITSGGSTYYADSVKGRFTISRDNAKNTVYLQMNSLKPEDTAVYYCAADGHSYSYSTYDYWGQGTQVTVSS")
"low polyreactivity"
>>> result("QVQLVESRRGLVQAGGSLRLSCAASGFTFYIYAMGWYRQAPGKERELVAAIIFRGGSTYYADSVKGRFTISRDNAKNTVYLQMNSLKREDTAVYYCAAVPRTYSGYYYWGHGTQVTVSS")
"high polyreactivity"

Next up:
-- ask What value of polyreactivity (PSR sort gate) has been recorded for this entry: QVHLVESGGGLVQAGGSLRLSCAASGYTFVVYAMGWYIQAPGKERELVAAINKSGGSTYYADSVKGRFTISRDHAKNSVYLQMNSLKAEDTAFYYCAADLLKLRTDYYWGQGTQVTVSS
-- reply low polyreactivity

Each recorded value in this set is attributed to the nanobody polyreactivity screen of Harvey et al. (2022).
